SYSTEM TESTED: human PR ligand-binding domain tagged with GST [PR-LBD (GST)] (Homo sapiens)
Construct: purchased Life Technologies (Carlsbad, Calif.)
Sequence (P06401 679-913 limits assumed): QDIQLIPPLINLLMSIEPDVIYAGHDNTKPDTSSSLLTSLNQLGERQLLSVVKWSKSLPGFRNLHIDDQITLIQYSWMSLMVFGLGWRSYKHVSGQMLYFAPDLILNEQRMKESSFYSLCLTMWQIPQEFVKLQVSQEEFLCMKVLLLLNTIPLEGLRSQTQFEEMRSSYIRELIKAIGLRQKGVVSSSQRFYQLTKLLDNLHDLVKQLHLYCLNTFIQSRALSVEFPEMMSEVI
METHOD NOTES: PR fluorescence polarization (FP) binding assay
CONDITION: Fluormone PL Green, read-out: IC50 (nM) PR binding
Consider the following molecules and their measured IC50 readings.
Numeric only. Scale: nM

Observe how each entry below is paired with its result.
# MOLECULE, UNITS, REPORTED RESULT
data = [
    ("CC1CC2(C)C(O)CCC2C2CCc3cc(O)ccc3C12 (stereo not shown)", "nM", 120),
    ("CC1CC2=CC(=O)CCC2(C)C2CCC3(C)C(O)CCC3C12 (stereo not shown)", "nM", 415),
    ("CC1CC2(C)C(O)CCC2C2CCC3=CC(=O)CCC3=C12 (stereo not shown)", "nM", 43.5),
]

Field IC50 (human PR ligand-binding domain tagged with GST [PR-LBD (GST)] (Homo sapiens)), entry CC1Cc2cc(O)ccc2C2CCC3(C)C(O)CCC3C12 (stereo not shown) : 502

Sample CC1CC2(C)C(O)CCC2C2C(C)Cc3cc(O)ccc3C12 (stereo not shown) , system: human PR ligand-binding domain tagged with GST [PR-LBD (GST)] (Homo sapiens). Its IC50 is 165

Entry CCC1CC2=CC(=O)CCC2(C)C2CCC3(C)C(O)CCC3C12 (stereo not shown) under human PR ligand-binding domain tagged with GST [PR-LBD (GST)] (Homo sapiens) had IC50 of 842

Query CC12CCC(=O)C=C1CC(c1ccccc1)C1C2CCC2(C)C(O)CCC12 (stereo not shown) on human PR ligand-binding domain tagged with GST [PR-LBD (GST)] (Homo sapiens); IC50 returned: 787

* * *

SYSTEM TESTED: rat AR ligand-binding domain tagged with His and GST [AR-LBD (His-GST)] (Rattus norvegicus)
Construct: purchased Life Technologies (Carlsbad, Calif.)
Sequence (P15207 651-882 limits assumed): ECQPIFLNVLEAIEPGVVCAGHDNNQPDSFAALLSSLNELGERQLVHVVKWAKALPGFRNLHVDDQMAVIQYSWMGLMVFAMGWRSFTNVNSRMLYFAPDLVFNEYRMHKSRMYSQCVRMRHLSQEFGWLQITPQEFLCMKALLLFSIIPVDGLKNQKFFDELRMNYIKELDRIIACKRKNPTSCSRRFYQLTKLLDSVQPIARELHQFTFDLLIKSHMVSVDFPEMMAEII
METHOD NOTES: AR fluorescence polarization (FP) binding assay
CONDITION: Fluormone AL Green
Mark each entry condition met if its IC50 (nM) AR sits below 20 nM, and condition not met for all others.

Look over these answered cases.
# MOLECULE, ASSIGNED LABEL
data = [
    ("CC1CC2(C)C(O)CCC2C2C(C)Cc3cc(O)ccc3C12 (stereo not drawn) [CDB 4916, 7α, 11β-dimethyl estradiol]", "condition met"),
    ("C[C@@H]1CC2CC(=O)CC[C@]2(C)C2CC[C@@]3(C)C(CC[C@@H]3O)C21 (stereo partly drawn) [CDB-4922, 7α-methyldihydro testosterone]", "condition not met"),
    ("CC1CC2(C)C(O)CCC2C2CCC3=CC(=O)CCC3=C12 (stereo not drawn) [CDB-4890, 11β, 4,9 diene-MNT]", "condition met"),
]

Now let's try a different one.
Does CC1CC2(C)C(O)CCC2C2CCc3cc(O)ccc3C12 (stereo not drawn) [CDB 4917, 11β-methyl estradiol] have IC50 (nM) AR strictly under 20 nM?
condition met

* * *

METHOD NOTES: Liver S9 Fraction Stability Assay
CONDITION: human liver S9, With NADPH, 10 μM
MEASURED PARAMETER: % parent molecule remaining after 2 hours at 37° C. (%)
The figure you give is taken to be in %; do not add the unit.

Illustrative cases are given below, each with its answer.
# MOLECULE, REPORTED RESULT
records = [
    ("CCCCCCCCCCCCOC(=O)O[C@H]1CCC2C3CCC4=CC(=O)CC[C@]4(C)C3CC[C@@]21C (stereo partly shown) [CDB-4883, testosterone dodecylcarbonate]", 85),
    ("C#C[C@]1(OC(=O)CCCCCCCCCCC)CCC2C3CCC4=CC(=O)CCC4C3CC[C@@]21CC (stereo partly shown)", 76),
]

// recorded % parent molecule remaining after 2 hours at 37° C. for CCCCCCCCCCCCOC(=O)O[C@H]1CCC2C3CCC4=CC(=O)CCC4=C3[C@@H](C)C[C@@]21C (stereo partly shown) : 82

Reported % parent molecule remaining after 2 hours at 37° C. for C#C[C@]1(OC(=O)OC(C)(C)C)CCC2C3CCC4=CC(=O)CCC4C3CC[C@@]21CC (stereo partly shown) was 56
